Target: T1, ECF03_1198
T1 chain: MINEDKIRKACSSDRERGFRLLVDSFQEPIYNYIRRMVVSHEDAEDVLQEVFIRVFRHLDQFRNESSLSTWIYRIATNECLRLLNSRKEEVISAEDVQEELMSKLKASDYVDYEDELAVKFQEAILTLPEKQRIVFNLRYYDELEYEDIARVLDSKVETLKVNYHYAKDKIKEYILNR
Threshold 2: fold repression strictly smaller gives 1.0, otherwise 0.0.

- Binder: "AS14_1324 (protein) MSGSRPEPEGHLAEQHLGDRLSALVDGELGHDARERVLAHVATCPKCKAEVDAQRRLKNVFAEAAPPAPSESFLARLQGLPGGGDSDGGGSPFSGLPGGFGASAASGVFGPRRDERFEFDYVPAGSHTPVLPSATSGRGFRIHEVGRHESDRSASRGLRFAFAAAGAVSLAAIALGGVTLGTPDTTTEARGSGSGSNVTPLRTPGSAAATGSESQRRRTAGPLLGQGQRALGDLPVASTTASAPLLPGMPAPAGGDARQQAVRALTTPVTAGAAAMSPLIRPLEAVPPLSLSSWSAAPEVRPPGLLAAPDPAPSPYPAASPAASSSPLR"
  Class: 0.0
- Binder: "AS04_1609 (protein) MNRTTEQRNAEVMKTIGLLDQMPRVEVDHLFRVRLMQRIEAMEVKKTSWSALPGGAFNPRLAFMALLLMLNIASALMLFMHGTPQATGSSGAIAESLTEDYGGPALSYYDDQTTIDR"
  Class: 0.0
- Binder: "AS25_1643_cl43 (protein) MTTDSNFNDPCRRQFSRDLPQKMARHTNEATGAMDMVKRDRFELLSAYLGGEVTAAERRQVEDWPANDVAVQRLYSRLLKLRQGIRTMPIPTAQQSPETTAEQVFAKVNRRSRLAWKLGGAAVAACVIGAVTNWLPGRQTGIPQLAQQPQEQPTQAVTTPDALPMIALNNPVIEIPKAAVASPTKFIQPQPQLGEIPPDIN"
  Class: 1.0
- Binder: "AS16_973 (protein) MKTDDLIALLAAGEGPVPRHAVGRRMAVAALGGLTAALLLTITLYGVRSDITEVAQTPLFWGKVAFPTSLALIGLWLTSRLARPGGKGAAGWKMLGLPLLLVWCGAAVSIAGAPVDARADLLFGRTWRTCALNIALLSVPAFVTVFWALKGLAPTRLRLAGAAGGLLAGSSATVAYCLHCPEMGVPFWGVWYVLGMLVPTVLGAWWGPRMLRW"
  Class: 1.0
- Binder: "AS15_436 (protein) MAQSTEPKASPQEATAKGGDNTKGKSRKELQQQIDENLRRVYEEALVQEVPDRFAMLLDQLRQKGTGK"
  Class: 0.0
- Binder: "AS03_1244 (protein) MKQFDPDVNIRPKEDSIRHYSVPDDYFASFTDKLMAQIPAVKEENTVVVPSVALWPKLRPLLYLAASFLLMIGMFKAFSLFGVGSDTGRTTSTSAGLVALDHGDTRWSEDTDYRDFLHDNCAETVSDEWVLTDFSE"
  Class: 0.0
